Exercise: state measured Percent inhibition of radiolabel from microtubules, [14C]Epothilone B for each of the molecules provided.
- System: microtubules (tubulin polymer)
- PROTOCOL_DESCRIPTION: Radiolabeled ligand binding assays
- PARTICULARS: test agent 4 μM; radiolabel 4.0 μM; 37° C.

Summary: C=C/C=C\[C@H](C)[C@H](OC(N)=O)[C@@H](C)[C@H](O)[C@@H](C)C/C(C)=C\[C@H](C)[C@@H](O)[C@@H](C)/C=C\[C@@H](O)C[C@@H]1OC(=O)[C@H](C)[C@@H](O)[C@H]1C [discodermolide, reference compound] , microtubules (tubulin polymer), Percent inhibition of radiolabel from microtubules, [14C]Epothilone B = 90 ± 1 (3) %

Summary: CC(=O)O[C@@]12CO[C@@H]1C[C@H](O)[C@@]1(C)C(=O)[C@H](O)C3=C(C)[C@@H](OC(=O)[C@H](O)[C@@H](NC(=O)OC(C)(C)C)c4ccccc4)C[C@@](O)([C@@H](OC(=O)c4ccccc4)[C@H]21)C3(C)C [docetaxel] , microtubules (tubulin polymer), Percent inhibition of radiolabel from microtubules, [14C]Epothilone B = 36 ± 1 (3) %

Summary: C/C(=C\c1csc(C)n1)[C@@H]1C[C@@H]2O[C@@H]2CCC[C@H](C)[C@H](O)[C@@H](C)C(=O)C(C)(C)[C@@H](O)CC(=O)O1 [epothilone A] , microtubules (tubulin polymer), Percent inhibition of radiolabel from microtubules, [14C]Epothilone B = 25 ± 3 (3) %

Summary: C=C/C=C\[C@H](C)[C@@H]1OC(=O)/C=C\C=C\[C@@H](C)[C@@H](O)C[C@H](O)/C=C\[C@H](C)[C@H](O)[C@@H](C)C[C@@H](C)CC[C@@H](O)[C@@H]1C [dictyostatin-1, reference compound] , microtubules (tubulin polymer), Percent inhibition of radiolabel from microtubules, [14C]Epothilone B = 88 ± 1 (3) %

Summary: CC(=O)O[C@H]1C(=O)[C@@]2(C)[C@H]([C@H](OC(=O)c3ccccc3)[C@]3(O)C[C@H](OC(=O)[C@H](O)[C@@H](NC(=O)c4ccccc4)c4ccccc4)C(C)=C1C3(C)C)[C@]1(OC(C)=O)CO[C@@H]1C[C@@H]2O [paclitaxel, reference compound] , microtubules (tubulin polymer), Percent inhibition of radiolabel from microtubules, [14C]Epothilone B = 26 ± 1 (3) %

###

Exercise: state measured Percent inhibition of radiolabel from microtubules, [3H]Discodermolide for each of the compounds provided.
- Tested on: microtubules (tubulin polymer)
- PROTOCOL_DESCRIPTION: Radiolabeled ligand binding assays
- PARTICULARS: test agent 4 μM; radiolabel 4.0 μM; 37° C.

Form: compound = CC(=O)O[C@H]1C(=O)[C@@]2(C)[C@H]([C@H](OC(=O)c3ccccc3)[C@]3(O)C[C@H](OC(=O)[C@H](O)[C@@H](NC(=O)c4ccccc4)c4ccccc4)C(C)=C1C3(C)C)[C@]1(OC(C)=O)CO[C@@H]1C[C@@H]2O [paclitaxel, reference compound] ; Percent inhibition of radiolabel from microtubules, [3H]Discodermolide = 6 ± 5 (3) %

Form: compound = "CC(=O)O[C@@]12CO[C@@H]1C[C@H](O)[C@@]1(C)C(=O)[C@H](O)C3=C(C)[C@@H](OC(=O)[C@H](O)[C@@H](NC(=O)OC(C)(C)C)c4ccccc4)C[C@@](O)([C@@H](OC(=O)c4ccccc4)[C@H]21)C3(C)C" ; Percent inhibition of radiolabel from microtubules, [3H]Discodermolide = 8 ± 6 (3) %

Form: compound = "C/C(=C\c1csc(C)n1)[C@@H]1C[C@@H]2O[C@]2(C)CCC[C@H](C)[C@H](O)[C@@H](C)C(=O)C(C)(C)[C@@H](O)CC(=O)O1" ; Percent inhibition of radiolabel from microtubules, [3H]Discodermolide = 14 ± 3%

Form: compound = "C/C(=C\c1csc(C)n1)[C@@H]1C[C@@H]2O[C@@H]2CCC[C@H](C)[C@H](O)[C@@H](C)C(=O)C(C)(C)[C@@H](O)CC(=O)O1" ; Percent inhibition of radiolabel from microtubules, [3H]Discodermolide = 6 ± 6 (3) %

Form: compound = C=C/C=C\[C@H](C)[C@@H]1OC(=O)/C=C\C=C\[C@@H](C)[C@@H](O)C[C@H](O)/C=C\[C@H](C)[C@H](O)[C@@H](C)C[C@@H](C)CC[C@@H](O)[C@@H]1C [dictyostatin-1, reference compound] ; Percent inhibition of radiolabel from microtubules, [3H]Discodermolide = 40 ± 3 (3) %
